System: LOC_OS01G51400-cb002;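 note: purified Escherichia coli-expressed rice kinase domain construct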
Assay: thermal shift delta Tm vs DMSO control; higher = stronger stabilization (binding)
Details: 12.5 µM; protein concentration 2 µM
Quantity measured: thermal shift delta Tm (°C)
Kindly answer with a numeric value in °C, unit omitted.

Examples with answers:
CC(C)(O)CC(=O)NCCn1ccc2ncnc(Nc3ccc(Oc4cccc(C(F)(F)F)c4)c(Cl)c3)c21 ... 1.72
COc1ncc(-c2ccc3nccc(-c4ccnnc4)c3c2)cc1NS(=O)(=O)c1ccc(F)cc1F ... 0.55
COc1cc(-c2cc(-c3ccc(N4CCNCC4)cc3)cnc2C)cc(OC)c1OC ... -0.26
Cc1cc(Nc2nc(N[C@@H](C)c3ncc(F)cn3)ncc2Cl)[nH]n1 ... 0.55
OCCn1cc(-c2cnc3nnn(Cc4ccc5ncccc5c4)c3n2)cn1 ... 0.09
C[C@H](Nc1ncnc2nc[nH]c12)c1cc2cccc(Cl)c2c(=O)n1-c1ccccc1 ... 0.38

Return thermal shift delta Tm measured with LOC_OS01G51400-cb002 given this molecule: N#C/C(=C\c1ccc(O)c(O)c1)C(=O)NCc1ccccc1
0.47

How about this molecule: CCOc1cc2ncc(C#N)c(Nc3ccc(F)c(Cl)c3)c2cc1NC(=O)/C=C/CN(C)C [Pelitinib (EKB-569)]
0.03

What would you report for Cc1[nH]c(/C=C2\C(=O)Nc3ccc(S(=O)(=O)Cc4c(Cl)cccc4Cl)cc32)c(C)c1C(=O)N1CCC[C@@H]1CN1CCCC1 ?
-0.1

// provenance: the supplement of paper PMC9694430
